- target-of-assay: human mu opioid receptor (human, UniProt P35372 1-400)
- Sequence (P35372 whole entry): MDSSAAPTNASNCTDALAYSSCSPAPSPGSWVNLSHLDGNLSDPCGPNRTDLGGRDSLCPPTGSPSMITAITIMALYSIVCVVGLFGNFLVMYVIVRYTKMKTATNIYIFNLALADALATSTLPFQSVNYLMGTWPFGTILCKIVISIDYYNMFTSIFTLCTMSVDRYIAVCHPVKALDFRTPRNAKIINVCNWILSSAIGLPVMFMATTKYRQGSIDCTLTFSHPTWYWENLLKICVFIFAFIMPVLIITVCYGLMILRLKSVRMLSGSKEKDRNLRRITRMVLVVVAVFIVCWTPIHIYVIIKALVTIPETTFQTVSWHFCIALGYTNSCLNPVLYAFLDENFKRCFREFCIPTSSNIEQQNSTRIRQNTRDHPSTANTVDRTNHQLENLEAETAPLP
- experiment: cell-based or functional assay
Positions of bridges follow the written chain, without caps; N, C: chain ends. Non-standard residues stand in square brackets, D forms with d. No end group written: not given here.
measured-attribute: Agonist EC50, mu (35S-GTPγS) (nM)

binder	reported
Y[dE]FFK-NH2 (lactam 2-5; N-terminus assumed; SMILES NC(=O)[C@@H]1CCCCNC(=O)CC[C@@H](NC(=O)[C@@H](N)Cc2ccc(O)cc2)C(=O)N[C@@H](Cc2ccccc2)C(=O)N[C@@H](Cc2ccccc2)C(=O)N1, Cyclic pentapeptide analog of endomorphin-2; also called Compound 2; Comp) [Tyr-c[D-Glu-Phe-Phe-Lys]-NH2]	0.99
Y[dK]WFE-NH2 (lactam 2-5; N-terminus assumed; SMILES NC(=O)[C@@H]1CCC(=O)NCCCC[C@@H](NC(=O)[C@@H](N)Cc2ccc(O)cc2)C(=O)N[C@@H](Cc2c[nH]c3ccccc23)C(=O)N[C@@H](Cc2ccccc2)C(=O)N1, Cyclic pentapeptide analog of endomorphin-1; also called Compound 1; Comp) [Tyr-c[D-Lys-Trp-Phe-Glu]-NH2]	0.15
Y[dK]WFD-NH2 (lactam 2-5; N-terminus assumed; SMILES NC(=O)[C@@H]1CC(=O)NCCCC[C@@H](NC(=O)[C@@H](N)Cc2ccc(O)cc2)C(=O)N[C@@H](Cc2c[nH]c3ccccc23)C(=O)N[C@@H](Cc2ccccc2)C(=O)N1, also called Compound 5; Comp) [Tyr-c[D-Lys-Trp-Phe-Asp]-NH2]	0.22

Data origin, for the record: patent US20160176930A1
